test: NOVARTIS: Cytotoxicity against human hepatocellular carcinoma cell line (Huh7); type: toxicity, cell-based, Huh-7; details: Huh7 cells (hepatocellular carcinoma cell line)
VALUE_KIND: CC50

molecule=O=C1CC(=O)Nc2cc(S(=O)(=O)NC3CCCCCCC3)ccc2N1 endpoint_result="> 10 µM"
molecule=CN(CCCNc1ccnc2cc(Cl)ccc12)C(=O)c1cccc(Cl)c1 endpoint_result="7.34 µM"
molecule="CCOc1ccc(N2C(=O)C3C4CC(C(Br)C4Br)C3C2=O)cc1 (configuration not stated)" endpoint_result="> 72.5 µM"
molecule="CC(Cc1ccsc1)Nc1nc2nonc2nc1N(C)C (configuration not stated)" endpoint_result="> 100 µM"
molecule="Cc1ccc(Cl)cc1-n1c(SCc2ccccc2)nnc1C(Cc1ccccc1)NC(=O)C12CC3CC(CC(C3)C1)C2 (configuration not stated)" endpoint_result="1.13 µM"
molecule="O=C(Nc1ccccc1)C1Cc2ccccc2CN1S(=O)(=O)c1ccc(F)cc1 (configuration not stated)" endpoint_result="> 100 µM"
molecule=COc1cccc(NC(=O)c2ccc3oc(=O)c(S(=O)(=O)c4ccccc4)cc3c2)c1 endpoint_result="> 10 µM"
molecule="O=C(Nc1ccccc1Cl)NC1(C(=O)NCC2CCCO2)CCCCC1 (configuration not stated)" endpoint_result="> 10 µM"
molecule=Oc1ccc(-c2ccc(F)cc2)cc1CNC1CCCCC1 endpoint_result="17.4 µM"
molecule=CC(=O)Nc1ccccc1OC(F)(F)F endpoint_result="> 13.2 µM"
molecule="O=C(C(Cc1c[nH]c2ccccc12)NS(=O)(=O)c1ccc(Cl)cc1)N1CCCCC1 (configuration not stated)" endpoint_result="> 100 µM"
molecule=COC(=O)c1c(-c2c(Cl)cccc2Cl)noc1/C=C/Nc1ccc(Cl)cc1 endpoint_result="> 10 µM"

###

test: NOVARTIS: Cytotoxicity against human hepatocellular carcinoma cell line (Huh7); assay type: toxicity, cell-based, Huh-7; details: Huh7 cells (hepatocellular carcinoma cell line)
This section presents compounds with their documented CC50 values.
VALUE_KIND: CC50

compound="CC1CCN(C(=O)C2CCCN(S(=O)(=O)c3ccc4[nH]c(-c5ccccc5)nc4c3)C2)CC1 (stereo not drawn)" endpoint_result="> 100 µM"
compound=O=C(Cc1cccs1)N1CCC(n2c(Cc3ccc(F)cc3)nc3cccnc32)CC1 endpoint_result="> 100 µM"
compound=C=C[C@H]1CN2CC[C@H]1C[C@H]2[C@H](OC(=O)CC)c1ccnc2ccccc12 endpoint_result="> 10 µM"

###

This section presents compounds with their documented CC50 values.
assay: NOVARTIS: Cytotoxicity against human hepatocellular carcinoma cell line (Huh7); format: toxicity, cell-based, Huh-7; conditions: Huh7 cells (hepatocellular carcinoma cell line)
VALUE_KIND: CC50

compound=CCCCNCCN1CCN(c2ccc3ccccc3c2)C[C@@H]1c1ccccc1 endpoint_result="8.16 µM"
compound=Brc1ccc(Nc2nc3ccccc3nc2Nc2ccc(Br)cc2)cc1 endpoint_result="20.6 µM"
compound="C=CC1CN2CCC1CC2C(OC(C)=O)c1ccnc2ccc(OC)cc12 (stereo not drawn)" endpoint_result="> 100 µM"
compound=O=C(Nc1ccc(-c2cn3ccsc3n2)cc1)c1ccc(S(=O)(=O)N2CCCCCC2)cc1 endpoint_result="17.6 µM"
compound=Cc1cc(-c2cnc(N3CCCC3)nc2C2CCN(Cc3cccnc3)CC2)on1 endpoint_result="> 10 µM"
compound=COc1ccc(S(=O)(=O)N=C2C=C(Nc3ccccc3)C(=O)c3ccccc32)cc1 endpoint_result="12 µM"
compound=CCC(=O)N1CCc2cc(Br)cc(S(=O)(=O)N3CCN(CC)CC3)c21 endpoint_result="> 10 µM"
compound="OC(Cn1cnc(-c2ccccc2)c1-c1ccccc1)Cn1c2ccc(Br)cc2c2cc(Br)ccc21 (stereo not drawn)" endpoint_result="> 100 µM"
compound=CCOC(=O)c1c(CNCCN(CC)CC)n(C)c2cc(Br)c(OC(C)=O)cc12 endpoint_result="> 100 µM"
compound=CCN(CC)C(=O)c1ccc2c(=O)n(Cc3cccc(Br)c3)c(=S)[nH]c2c1 endpoint_result="> 10 µM"
compound=CCCCCCCCCCCCn1ccc(=N)cc1 endpoint_result="4.99 µM"
compound="COc1cc(C2c3[nH]c4ccccc4c3C[C@H]3C(=O)N(CCc4ccccc4)CC(=O)N23)cc(OC)c1OC (stereo partly drawn)" endpoint_result="> 100 µM"
compound=CC(C)Cc1nc(N2CCOCC2)c2nnn(Cc3ccccc3)c2n1 endpoint_result="> 100 µM"

###

assay: NOVARTIS: Cytotoxicity against human hepatocellular carcinoma cell line (Huh7); format: toxicity, cell-based, Huh-7; settings: Huh7 cells (hepatocellular carcinoma cell line)
VALUE_KIND: CC50

mol_smiles=O=C(Cn1c2ccccc2c(=O)c2ccc(Cl)cc21)Nc1cccc(Cl)c1 endpoint_result="> 10 µM"
mol_smiles=Cc1ccc(C)c(Oc2c(C(F)(F)F)oc3c(CN4CCN(C)CC4)c(O)ccc3c2=O)c1 endpoint_result="> 100 µM"
mol_smiles=CCOC(=O)c1c(CSc2ccccc2)oc2cc(CN(C)C)c(O)c(Cl)c12 endpoint_result="61.6 µM"
mol_smiles=CC(C)N(CC(=O)Nc1cc(C(C)(C)C)nn1-c1ccc(Cl)cc1)C(=O)c1cccc2ccccc12 endpoint_result="> 10 µM"

###

system: Plasmodium falciparum; test: NOVARTIS: Inhibition of Plasmodium falciparum 3D7 (drug-susceptible) proliferation in erythrocyte-based infection assay; assay type: functional, organism-based; settings: Plasmodium falciparum, 3D7
VALUE_KIND: EC50 (nM)

molecule=O=C(Nc1ccon1)c1cc(-c2cccnc2)nc2ccc(Cl)cc12 value_kind=EC50 measurement_units=nM endpoint_result=1500
molecule=COc1ccc(-c2c[n+](-c3ccccc3)c3n2CCS3)cc1 value_kind=EC50 measurement_units=nM endpoint_result=778
molecule="OC(Cn1cnc(-c2ccccc2)c1-c1ccccc1)Cn1c2ccc(Br)cc2c2cc(Br)ccc21 (stereo not drawn)" value_kind=EC50 measurement_units=nM endpoint_result=952

###

tested on: Plasmodium falciparum; experiment: NOVARTIS: Inhibition of Plasmodium falciparum W2 (drug-resistant) proliferation in erythrocyte-based infection assay; assay type: functional, organism-based; details: Plasmodium falciparum, W2; read-out: EC50
This section presents molecules with their documented EC50 values.
VALUE_KIND: EC50

molecule=COc1cc(O)c2c(=O)cc(CCOC(=O)Nc3ccccc3)[nH]c2c1 assayed_target="Plasmodium falciparum" value_kind=EC50 endpoint_result="> 1250 nM"
molecule=CCOc1ccc2[nH]c(=O)c(CN(Cc3ccccc3OC)C(C)=O)cc2c1 assayed_target="Plasmodium falciparum" value_kind=EC50 endpoint_result="> 1210 nM"
molecule="CC(=O)Nc1ccc2c(c1)C(=O)N(C(CC(C)C)C(=O)NCC(=O)O)[C@@H](CCC(=O)OCc1ccccc1)C(=O)N2 (some centres not stated)" assayed_target="Plasmodium falciparum" value_kind=EC50 endpoint_result="> 503 nM"
molecule=O=C1c2cccc(N3CCN(Cc4cccn4-c4nccs4)CC3)c2C(=O)N1Cc1ccc(Cl)cc1 assayed_target="Plasmodium falciparum" value_kind=EC50 endpoint_result="> 12500 nM"
molecule=CCOC(=O)CCC(=O)N(C)CCCNc1ccnc2cc(Cl)ccc12 assayed_target="Plasmodium falciparum" value_kind=EC50 endpoint_result="< 15.6 nM"
molecule=CCOc1ccc(N2C(N)=NC(N)=NC2(C)C)cc1 assayed_target="Plasmodium falciparum" value_kind=EC50 endpoint_result="> 12500 nM"
molecule=COCCCNC(=O)c1c(C)nc2scc(C)n12 assayed_target="Plasmodium falciparum" value_kind=EC50 endpoint_result="> 1450 nM"

###

system: Plasmodium falciparum; assay: NOVARTIS: Inhibition of Plasmodium falciparum 3D7 (drug-susceptible) proliferation in erythrocyte-based infection assay; assay type: functional, organism-based; conditions: Plasmodium falciparum, 3D7
pEC50: −log10 of the molar value.
This section presents compounds with their documented pEC50 values.
VALUE_KIND: pEC50

compound=O=C(CSc1ccc(Cl)cc1)NN=C1C(=O)Nc2ccccc21 value_kind=pEC50 endpoint_result="< 4.90"
compound="COc1ccc(C2C(C(=O)c3ccccc3)=C(O)C(=O)N2c2cccc(Cl)c2)c(OC)c1 (centres undefined)" value_kind=pEC50 endpoint_result="< 4.90"
compound=COCCNCc1cc2cc3c(cc2n(Cc2cccc(F)c2)c1=O)OCO3 value_kind=pEC50 endpoint_result="< 5.90"
compound=Cc1nc(N2CCC(C)CC2)c2c(C)c(C(=O)Nc3ccc(C(F)(F)F)cc3)sc2n1 value_kind=pEC50 endpoint_result="< 4.90"

###

assay: NOVARTIS: Cytotoxicity against human hepatocellular carcinoma cell line (Huh7); type: toxicity, cell-based, Huh-7; details: Huh7 cells (hepatocellular carcinoma cell line)
VALUE_KIND: CC50

compound=CCCCCCCn1c2c(c(=N)c3ccccc31)CCC2 value_kind=CC50 endpoint_result="3.86 µM"
compound="CSC1=C(C#N)C(c2ccc(O)cc2)CC(=O)N1 (centres undefined)" value_kind=CC50 endpoint_result="> 100 µM"
compound=CCN(CC)CCCNCC(=O)N1c2ccccc2Sc2ccccc21 value_kind=CC50 endpoint_result="> 100 µM"
compound="COc1ccc(NC2=CC(=O)CC(c3ccccc3)C2)c(OC)c1 (centres undefined)" value_kind=CC50 endpoint_result="> 100 µM"
compound=Oc1ccccc1-c1nc(-c2ccccc2)nc(-c2ccc(Br)cc2)n1 value_kind=CC50 endpoint_result="> 10 µM"
compound=COc1ccc(CNC2CCN(c3cccc(NC(=O)C4CC4)c3)CC2)cc1 value_kind=CC50 endpoint_result="65.1 µM"
compound=Brc1ccc2[nH]c3nc4ccccc4nc3c2c1 value_kind=CC50 endpoint_result="> 100 µM"
compound=O=C(Cn1ccc(=NCc2ccccc2)cc1)c1ccc(Cl)cc1 value_kind=CC50 endpoint_result="12.8 µM"
compound="O=C(COC(c1ccccc1)c1cccnc1)NCCNC(=O)OCc1ccccc1 (centres undefined)" value_kind=CC50 endpoint_result="> 10 µM"
